Experiment: Half life in rhesus monkey at 1 mg/kg, iv
Format: ADME, organism-based, Macaca mulatta
Set-up: dose 1 mg/kg, route intravenous
Conditions: in vivo
MEASURE: half-life (h)

1. N#Cc1cc(Cl)cc(Oc2cc(OCc3n[nH]c4nc(N)ccc34)cc(F)c2Cl)c1 ... 4.2
2. N#Cc1cc(Cl)cc(Oc2cc(OCc3n[nH]c4nc(N)ccc34)ccc2Cl)c1 ... 2.1

----------
System: Human immunodeficiency virus
Test: Antiviral activity against HIV with reverse transcriptase L100I mutant assessed as inhibition of viral replication
Type: functional, organism-based
Conditions: Human immunodeficiency virus 1
Each entry below lists one item and its recorded IC50 value.
MEASURE: IC50

1. O=C1Nc2ccc(Cl)cc2[C@@](C#CC2CC2)(C(F)(F)F)O1 [EFAVIRENZ] ... 21 nM
2. N#Cc1cc(Cl)cc(Oc2cc(OCc3n[nH]c4nc(N)ccc34)ccc2Cl)c1 ... 1.3 nM
3. N#Cc1cc(Cl)cc(Oc2cc(OCc3n[nH]c4ncccc34)ccc2Cl)c1 ... 0.7 nM
4. N#Cc1cc(Cl)cc(Oc2cc(OCc3n[nH]c4nc(N)ccc34)cc(F)c2Cl)c1 ... 0.6 nM

----------
Assay: Half life in Beagle dog at 0.5 mg/kg, iv
Assay type: ADME, organism-based, Canis lupus familiaris
Parameters: dose 0.5 mg/kg, route intravenous
Conditions: in vivo
MEASURE: half-life (h)

1) N#Cc1cc(Cl)cc(Oc2cc(OCc3n[nH]c4nc(N)ccc34)cc(F)c2Cl)c1 ... 7
2) N#Cc1cc(Cl)cc(Oc2cc(OCc3n[nH]c4nc(N)ccc34)ccc2Cl)c1 ... 3.9

----------
Tested on: Rattus norvegicus
Assay: AUC in Sprague-Dawley rat at 2 mg/kg, iv
Assay type: ADME, organism-based, Plasma
Design: dose 2 mg/kg, route intravenous
Conditions: in vivo
MEASURE: AUC (µM)

1) N#Cc1cc(Cl)cc(Oc2cc(OCc3noc4nc(-n5ccnc5)ccc34)ccc2Cl)c1 ... 0.7
2) N#Cc1cc(Cl)cc(Oc2cc(OCc3noc4nc(N)ccc34)ccc2Cl)c1 ... 0.8
3) N#Cc1cc(Cl)cc(Oc2cc(OCc3n[nH]c4nc(N)ccc34)cc(F)c2Cl)c1 ... 7.4
4) N#Cc1cc(Cl)cc(Oc2cc(OCc3n[nH]c4ncccc34)cc(Cl)c2Cl)c1 ... 3.5
5) N#Cc1cc(Cl)cc(Oc2cc(OCc3noc4nc(N)ccc34)cc(F)c2Cl)c1 ... 0.4
6) CNc1ccc2c(COc3ccc(Cl)c(Oc4cc(Cl)cc(C#N)c4)c3)noc2n1 ... 0.8

----------
Assay: Volume of distribution in Sprague-Dawley rat at 2 mg/kg, iv
Assay type: ADME, organism-based
Set-up: dose 2 mg/kg, route intravenous
Settings: in vivo
MEASURE: Vd (L/kg)

1) N#Cc1cc(Cl)cc(Oc2cc(OCc3noc4nc(N)ccc34)cc(F)c2Cl)c1 ... 5.1
2) N#Cc1cc(Cl)cc(Oc2cc(OCc3n[nH]c4ncccc34)cc(Cl)c2Cl)c1 ... 1.8
3) CNc1ccc2c(COc3ccc(Cl)c(Oc4cc(Cl)cc(C#N)c4)c3)noc2n1 ... 2
4) N#Cc1cc(Cl)cc(Oc2cc(OCc3n[nH]c4nc(N)ccc34)ccc2Cl)c1 ... 2
5) N#Cc1cc(Cl)cc(Oc2cc(OCc3noc4nc(-n5ccnc5)ccc34)ccc2Cl)c1 ... 2.2
6) N#Cc1cc(Cl)cc(Oc2cc(OCc3n[nH]c4nc(N)ccc34)cc(F)c2Cl)c1 ... 3.5
7) N#Cc1cc(Cl)cc(Oc2cc(OCc3noc4nc(N)ccc34)ccc2Cl)c1 ... 44.7

Reference for the values: ChEMBL document CHEMBL1156144
